Tested on: DMS 114 small cell lung
Test: NCI tumour cell line growth inhibition, 48 h
endpoint.name: TGI

Field: example entries. Status: answers known.
• CNC(=O)OCc1nc(SSc2nc(COC(=O)NC)c(COC(=O)NC)n2C)n(C)c1COC(=O)NC = > 100 µM
• CCCC(O)[C@@]1(CC)CC(C)C(O)(C2(C)C[C@H](C)[C@@H](C(CC)C(=O)C(C)[C@@H](O)[C@H](C)C3OC(O)(C(CC)C(=O)O)[C@@H](C)C(O)C3CC)O2)O1 (stereo partly specified) = 1.08 µM
• COS(=O)c1cc(Cl)cc(Cl)c1OC(=O)CSSCC(=O)Oc1c(Cl)cc(Cl)cc1S(=O)OC (stereo unspecified) = 35.3 µM
• CC1CCCP(=O)(c2ccccc2)CCC1 (stereo unspecified) = > 100 µM
• COCOC1CCCC[C@@]1(OCCOCCO[C@@]1(c2ccccc2)CCCC[C@H]1OCOC)c1ccccc1 (stereo partly specified) = > 100 µM

Record TGI for all entries; do not skip any.
1. O=C1C2C(C(=O)N1Cc1ccccc1)N(Cc1ccccc1)C(=O)N2Cc1ccccc1 (stereo unspecified)
2. Cc1cc(-c2ccc(N=Nc3ccc4c(S(=O)(=O)O)cc(S(=O)(=O)O)c(N)c4c3O)c(C)c2)ccc1N=Nc1ccc2c(S(=O)(=O)O)cc(S(=O)(=O)O)c(N)c2c1O

Data returned:
1: > 100 µM; 2: > 100 µM

Record TGI for all entries; do not skip any.
1. CS(=O)(=O)OCCN1CCN(C(=O)c2ccc(Cl)c3c(Nc4ccc(S(=O)(=O)N=C(N)N)cc4)c4ccccc4nc23)CC1
2. CC(C)(C)OC(=O)N[C@H]1CC(=O)c2ccccc2N(CC(=O)O)C1=O
3. CCC12CCC[C@@]13C=C[C@H](O3)C(C)(C)C2=O (stereo partly specified)
4. N#Cc1ccccc1Sc1ccccc1N

Data returned:
1: > 100 µM; 2: > 100 µM; 3: > 100 µM; 4: > 100 µM

Record TGI for all entries; do not skip any.
1. O=[N+]([O-])c1cccnc1S(=O)(=O)c1ccccc1
2. Cc1ccc(S(=O)(=O)Nc2ccccc2C(C)(C)C)cc1
3. O=C(Nc1ccccc1C(=O)NC(=O)c1ccccc1NC(=O)c1ccccc1)c1ccccc1
4. CC[n+]1c(-c2ccccc2)c2cc(N)ccc2c2ccc(N)cc21
5. COC(=O)C1CCC(C)CC1=O (stereo unspecified)

Data returned:
1. 8.53 µM
2. 60.4 µM
3. 9.74 µM
4. 10.1 µM
5. > 100 µM
